- Test system: BT-549 breast
- protocolNotes: NCI-60 one-dose screen, 48 h (100 = growth as untreated, 0 = no growth, -100 = all killed)
- measurementSetup: 10 µM unless noted
This is part of a sample that, as a whole, favours compounds with a hit. Of some 83,000 tested, about 20% had one in any assay.

{"molecule": "Cc1ccc(NC(=O)Nc2ccc(Nc3ncnc4sc5c(c34)CCOC5)cc2)cc1Cl", "outputUnit": "%", "growth": 101}
{"molecule": "O=C(NOC[C@H](O)CO)c1ccc(F)c(F)c1Nc1ccc(I)cc1F", "outputUnit": "%", "growth": 80.4}
{"molecule": "O=C(Cc1ccc(-c2ccc(OCCN3CCOCC3)cc2)cn1)NCc1ccccc1", "outputUnit": "%", "growth": 3.61}
{"molecule": "COC(=O)[C@H](Cc1ccccc1)NC(=O)[C@@H](OC)[C@@H]1Cc2cc3cc(OC4CC(OC5CC(O)C(O)C(C)O5)C(O)C(C)O4)c(C)c(O)c3c(O)c2C(=O)[C@H]1OC1CC(OC2CC(OC3CC(C)(O)C(O)C(C)O3)C(O)C(C)O2)C(O)C(C)O1 (stereo partly drawn)", "outputUnit": "%", "growth": -62.4}
{"molecule": "COC[C@@H](C)n1c(C2CCOCC2)nc2c1C1C=C(OC)C(c3c(C)noc3C)=CC1N=C2 (stereo partly drawn)", "outputUnit": "%", "growth": 62.6}
{"molecule": "Cc1nc(-c2cn3c(n2)-c2ccc(-c4cnn(C(C)(C)C(N)=O)c4)cc2OCC3)n(C(C)C)n1", "outputUnit": "%", "growth": 14.9}
{"molecule": "CSc1nc2ncnc(SC)c2[nH]1", "outputUnit": "%", "growth": 93.3}
{"molecule": "CCN1CCN(Cc2ccc(Cc3ncc(F)c(-c4cc(F)c5nc(C)n(C(C)C)c5c4)n3)nc2)CC1", "outputUnit": "%", "growth": 61}

----------
- Tested on: HCT-15 colon
- protocolNotes: NCI-60 one-dose screen, 48 h (100 = growth as untreated, 0 = no growth, -100 = all killed)
- measurementSetup: 10 µM unless noted
About 83,000 compounds went through this panel and 20% of them were active in at least one assay; those are over-represented in the sample as a whole.
Assign labels as follows, please: T for growth below 10%; F for growth equal to or exceeding 10%.

{"molecule": "CSC1=C(N)C(=O)c2[nH]cc(CO)c2C1=N", "qualitativeLabel": "T"}
{"molecule": "COc1cc(C(=O)NNC(=O)c2ccc(NC(=O)CCl)cc2)cc(OC)c1OC", "qualitativeLabel": "F"}
{"molecule": "COC(=O)C1CCc2sc3ncnc(Nc4cn[nH]c4C(=O)Nc4ccc(CN5CCN(C)CC5)cc4)c3c21 (stereo not given)", "qualitativeLabel": "T"}
{"molecule": "CCOc1ccc(N=C(C)Nc2ccc(OCC)cc2)cc1", "qualitativeLabel": "F"}
{"molecule": "CC(C)=CCc1cc2c(cc1O)C1=C(C(=O)C3=C(C1=O)S(=O)(=O)CCN3)C(C=C(C)C)O2 (stereo not given)", "qualitativeLabel": "T"}
{"molecule": "O=C(Cc1ccccc1)Nc1nnc(NC2CCN(c3nnc(NC(=O)Cc4ccccc4)s3)CC2)s1", "qualitativeLabel": "F"}
{"molecule": "COc1ccc2c(CCCC(c3ccccc3)c3ccccc3)c3[n+](cc2c1OC)CCc1cc2c(cc1-3)OCO2", "qualitativeLabel": "F"}
{"molecule": "COc1ccc(F)c(F)c1C(=O)c1cnc(NC2CCN(S(C)(=O)=O)CC2)nc1N", "qualitativeLabel": "T"}
{"molecule": "Cc1cc(Nc2nc(N[C@@H](C)c3ncc(F)cn3)ncc2Cl)n[nH]1", "qualitativeLabel": "F"}

----------
- System: A498 renal
- protocolNotes: NCI-60 one-dose screen, 48 h
- measurementSetup: 10 µM unless noted
This is part of a sample that, as a whole, favours compounds with a hit. Of some 83,000 tested, about 20% had one in any assay. Calls of active or inactive are those of the source. How the source made its calls: active means growth percent below 10; inactive means the rest.
Outcome codes: Yes = active, No = inactive

{"compound": "CC(C)c1cc(CNc2nc(Nc3cc(C4CC4)[nH]n3)cc(N3CCN(C)CC3)n2)on1", "qualitativeLabel": "Yes"}
{"compound": "C=C1C(=O)O[C@H]2[C@H]1CC/C(C=Nc1c(N)cc(C(F)(F)F)cc1C(F)(F)F)=C\\CC[C@@]1(C)O[C@@H]21", "qualitativeLabel": "No"}
{"compound": "Cc1c(Cn2c(C)nc3c(C(=O)O)cc(N4CCOCC4)cc32)cccc1C(F)(F)F", "qualitativeLabel": "Yes"}
{"compound": "COC(=O)CNC(=O)[C@@H](OC)[C@@H]1Cc2cc3cc(OC4CC(OC5CC(O)C(O)C(C)O5)C(O)C(C)O4)c(C)c(O)c3c(O)c2C(=O)[C@H]1OC1CC(OC2CC(OC3CC(C)(O)C(O)C(C)O3)C(O)C(C)O2)C(O)C(C)O1 (some centres undefined)", "qualitativeLabel": "Yes"}
{"compound": "CC(=O)c1c(C)c2cnc(Nc3ccc(N4CCNCC4)cn3)nc2n(C2CCCC2)c1=O", "qualitativeLabel": "No"}
{"compound": "C[C@@H]1COCCN1c1cc(C2([S@](C)(=N)=O)CC2)nc(-c2ccnc3[nH]ccc23)n1", "qualitativeLabel": "Yes"}
{"compound": "O=C(Nc1nc2cccc(-c3ccc(CN4CCS(=O)(=O)CC4)cc3)n2n1)C1CC1", "qualitativeLabel": "No"}
{"compound": "O=C1C=CC2(NN=C(c3ccccc3)N2c2ccccc2)c2cccc(O)c21 (centres undefined)", "qualitativeLabel": "No"}
{"compound": "Cc1nc2cc(-c3nn(C(C)C)c4ncnc(N)c34)ccc2o1", "qualitativeLabel": "Yes"}
{"compound": "C#Cc1cccc(Nc2ncnc3cc(OC)c(OCCCCCCC(=O)NO)cc23)c1", "qualitativeLabel": "Yes"}
{"compound": "CCc1nc2cc(/C=C/C(=O)NO)ccc2c(=O)n1CCc1ccc(F)cc1", "qualitativeLabel": "Yes"}
{"compound": "COc1ccc(Cc2cc(-c3ccccc3C)n[nH]c2=O)cc1", "qualitativeLabel": "No"}
{"compound": "CC(C)c1ccc(/C=N/Nc2nc3ccccc3s2)cc1", "qualitativeLabel": "No"}
{"compound": "COc1ccc2c(OCc3nnc4ccc(-c5ccccc5)nn34)ccnc2c1", "qualitativeLabel": "No"}
{"compound": "CCCCCC(=O)OCc1ccc(Cl)c(Cl)c1", "qualitativeLabel": "No"}
{"compound": "C=CC(=O)Nc1cc(Nc2nccc(-c3cn(C)c4ccccc34)n2)c(OC)cc1N(C)CCN(C)C", "qualitativeLabel": "Yes"}
{"compound": "COc1c(OCCCN2CCOCC2)ccc2c3n(c(=NC(=O)c4cnc(N)nc4)nc12)CCN3", "qualitativeLabel": "Yes"}
{"compound": "CCc1cc2c(c3ccc(C(=O)CBr)cc13)CCCC2", "qualitativeLabel": "No"}
{"compound": "O=C(COc1ccc(/C=C2\\Cc3ccc(Cl)cc3C2=O)cc1)Nc1nccs1", "qualitativeLabel": "No"}

----------
- Test system: SK-MEL-2 melanoma
- protocolNotes: NCI-60 one-dose screen, 48 h
- measurementSetup: 10 µM
About 83,000 compounds went through this panel and 20% of them were active in at least one assay; those are over-represented in the sample as a whole. Activity calls are given as the source filed them. The calls were made as follows: active = growth percent below 10; inactive = the rest.
Possible outcomes: active, inactive

{"molecule": "Cc1ccccc1Nc1nc2nonc2nc1Nc1cccc(C)c1C", "qualitativeLabel": "inactive"}
{"molecule": "COc1cnc2c(c1)C(=O)c1c-2n(CCCN2CCC(O)CC2)c(=O)c2cc(Cl)ccc12", "qualitativeLabel": "inactive"}
{"molecule": "CCc1nc2cc(/C=C/C(=O)NO)ccc2c(=O)n1CCc1ccc(OC)cc1", "qualitativeLabel": "inactive"}
{"molecule": "Cc1ccc2oc(=O)cc(-c3cc(-c4cc5ccccc5oc4=O)nc(N)c3C#N)c2c1", "qualitativeLabel": "inactive"}
{"molecule": "Nc1nc(N)c2cc(CNc3ccc(C(=O)NC(CC(=O)O)C(=O)O)cc3)ccc2n1 (stereo not drawn)", "qualitativeLabel": "inactive"}
{"molecule": "CCN1/C(=C/C=C/c2n(-c3ccccc3)c3ccc(-c4nc5ccccc5s4)cc3[n+]2CC)N(c2ccccc2)c2ccc(-c3nc4ccccc4s3)cc21", "qualitativeLabel": "active"}
{"molecule": "Cc1cc(N(CCNc2ccnc3cc(Cl)ccc23)Cc2ccc3c(c2)OCO3)nc(N2CCCC2)n1", "qualitativeLabel": "active"}
{"molecule": "C[N+](C)(CCOC(c1ccccc1)c1ccccc1)CC(=O)OCc1ccccc1", "qualitativeLabel": "inactive"}
{"molecule": "CCCCN1CCCC[C@@H]1C(=O)N[C@H](C(=O)N(C)[C@H](CCc1nc(C(=O)N[C@@H](Cc2ccccc2)C[C@H](C)C(=O)OC)cs1)C(C)C)C(C)C", "qualitativeLabel": "inactive"}
{"molecule": "CCN1CCN(c2nc(C)cc(N(CCCNc3ccnc4cc(Cl)ccc34)Cc3ccc4c(c3)OCO4)n2)CC1", "qualitativeLabel": "active"}
{"molecule": "CC(=O)Oc1ccccc1C(=O)N=C1[Se]CCN1C(=O)c1ccccc1OC(C)=O", "qualitativeLabel": "active"}
{"molecule": "COc1cc(-c2nc(C(=O)NCC(=O)O)nn2-c2ccc(Cl)cc2)cc(OC)c1OC", "qualitativeLabel": "inactive"}
{"molecule": "N#Cc1c(NC(=O)c2cccs2)[n+]([O-])c2ccc(F)cc2[n+]1[O-]", "qualitativeLabel": "inactive"}
{"molecule": "Nc1c2c(c(O)c3c1=C(CO)C=N3)=NCCS2=O (stereo not drawn)", "qualitativeLabel": "active"}
{"molecule": "CC(C)=CCc1cc2c(cc1O)C1=C(C(=O)C3=C(NCCS3(=O)=O)C1=O)C(C=C(C)C)O2 (stereo not drawn)", "qualitativeLabel": "inactive"}
{"molecule": "COc1cnc2c(c1)C(=O)c1c-2n(CCCN2CCOCC2)c(=O)c2cc(Cl)ccc12", "qualitativeLabel": "inactive"}
{"molecule": "Cc1nn(-c2nc3ccccc3[nH]2)c2c1C(c1ccc(OCc3ccc(F)cc3)cc1)CC(=O)N2 (stereo not drawn)", "qualitativeLabel": "inactive"}
{"molecule": "COc1ccc2c(CCc3ccc(Cl)cc3)c3[n+](cc2c1OC)CCc1cc2c(cc1-3)OCO2", "qualitativeLabel": "inactive"}
